Data provenance: PubChem BioAssay (EPA / NIEHS)

- Read-out: Monokine induced gamma interferon (MIG), CXCL9 (gene 4283)
- TEST: BSK_3C_MIG: BioMAP Diversity Plus: 3C Assay for Monokine induced gamma interferon (MIG) Biomarker Activity (AID 2283021)
- TEST_CONTEXT: primary human endothelial cells (HUVEC); actives raise or lower the signal
- Protocol: BSK_3C is a cell-based, multiplexed-readout assay that uses umbilical vein endothelium, a human vascular primary cell, with measurements taken at 24 hours after chemical dosing in a 96-well plate.BSK_3C_MIG is an assay component measured in the BSK_3C assay. It measures MIG antibody related to regulation of gene expression using ELISA technology.Data from the assay component BSK_3C_MIG was analyzed into 1 assay endpoint. […]
The source made the active and inactive calls. Rule for the calls: active = hit-call score of the fitted dose curve at least 0.9, where 1 is the maximum; inactive = score below 0.9.
Hello, when you answer, please use one of the following outcomes: Y for active, N for inactive

### Prompt Each compound tested received a call. Report the one for O=[N+]([O-])c1ccc(Cl)cc1 .
### Response N

### Prompt Just curious, what result did [Cd+2].[Cl-].[Cl-] get here?
### Response N

### Prompt Field: outcome | Entry: COCC(=O)N(c1c(C)cccc1C)N1CCOC1=O
### Response N

### Prompt Dear all, I need the recorded test outcome for O=C(CCl)c1ccccc1 , thank you.
### Response Y

### Prompt Status in this test for CC(C)COP(=O)(OCC(C)C)OCC(C)C ?
### Response N

### Prompt State the result this test recorded for CCC(C)c1cc([N+](=O)[O-])cc([N+](=O)[O-])c1OC(=O)C=C(C)C (stereo not drawn) .
### Response Y

### Prompt How did this test come out for N#CCCCCC#N ?
### Response N

### Prompt What did this assay record as the result for O=c1[nH]c(Cl)c(Cl)cc1Cl ?
### Response N

### Prompt Which outcome was assigned to COc1ccc(CO)cc1 in this test?
### Response N

### Prompt Returns: the outcome recorded for c1ccc(Nc2ccc3ccccc3c2)cc1 in this assay.
### Response Y

### Prompt Answer briefly: the call reported for Cc1ccc(OP(=O)(Oc2ccc(C)cc2)Oc2ccc(C)cc2)cc1 (tested in a mixture with another compound) in this assay.
### Response N

### Prompt In this assay, the call recorded for CC(=O)/C=C/c1ccccc1 was what?
### Response N

### Prompt What call does the record list for O=c1c2ccccc2c(=O)c2c1cc(Cl)c1[nH]c3c([nH]c12)c(Cl)cc1c(=O)c2ccccc2c(=O)c13 ?
### Response N

* * *

- TEST: ATG_NFI_CIS: Attagene CIS-FACTORIAL HepG2 Assay for human Nuclear Factor I (NFI) (AID 2282989)
- TEST_CONTEXT: HepG2 cis-regulatory reporter, NFI response element transcription; actives raise or lower the signal
Activity calls are given as the source filed them. How the source made its calls: active means hit-call score of the fitted dose curve at least 0.9, where 1 is the maximum; inactive means score below 0.9.
# valid calls are TRUE (active), FALSE (inactive); nothing else

### Prompt # lookup: test call for S=c1[nH]c2ccccc2[nH]1
### Response FALSE

### Prompt I'd appreciate the recorded outcome for CCC(C)c1cc([N+](=O)[O-])cc([N+](=O)[O-])c1OC(=O)C=C(C)C (stereo unspecified) from this test.
### Response TRUE

### Prompt Recorded call for COC(=O)COc1ccc(Cl)cc1Cl ?
### Response FALSE

### Prompt Dear all, I need the recorded test outcome for CC1(C)[C@H](C(=O)O[C@H](C#N)c2cccc(Oc3ccccc3)c2)[C@@H]1C=C(Br)Br , thank you.
### Response FALSE

### Prompt What did this assay record as the result for CCc1cccc(C)c1N(C(=O)CCl)[C@@H](C)COC ?
### Response FALSE

### Prompt Which outcome did this test record for the compound Cc1ccc(C)c2ccccc12 ?
### Response FALSE

### Prompt Write down the call the test reported for this compound. Item: C=CC(=O)OCCO
### Response TRUE

### Prompt Short answer needed: outcome of this test for O=C(O)COc1ccccc1 ?
### Response FALSE

### Prompt Recorded call for Nc1ccc(-c2ccc(N)c(N)c2)cc1N ?
### Response FALSE

### Prompt Could you check what this test reported for CC1(C)C(=O)NC(=O)NC1=O ?
### Response FALSE

### Prompt Dear colleague, could you share the recorded outcome for CCOC(=O)COc1ccc(Cl)cc1Cl when you have a moment?
### Response FALSE

### Prompt Recorded test call requested for Nc1cc(Cl)cc(Cl)c1
### Response FALSE

### Prompt What call does the record list for COC(C)(C)CCC[C@H](C)C/C=C/C(C)=C/C(=O)OC(C)C ?
### Response FALSE

### Prompt Hi, sorry to bother you, what did the test record for CCOC(=O)NC(=S)Nc1ccccc1NC(=S)NC(=O)OCC ?
### Response FALSE

### Prompt Hi, do you know how Cc1ncc(C[n+]2csc(CCO)c2C)c(N)n1 came out in this test?
### Response FALSE

### Prompt Field: outcome | Entry: CC=Cc1ccc2c(c1)OCO2
### Response FALSE

### Prompt Please state the recorded outcome for this compound: O=C(NCNC(=O)NC1C(=O)NC(=O)N1CO)NC1C(=O)NC(=O)N1CO (stereo unspecified)
### Response FALSE

### Prompt What did the test return for [CH3][Sn]([CH3])([Cl])[Cl] ?
### Response FALSE

### Prompt How did this test come out for Nc1ccccc1 ?
### Response FALSE

### Prompt Check the results log: what was the call for [Cl-].[Cl-].[Cl-].[Yb+3] ?
### Response FALSE

### Prompt # outcome recorded in this test, key = CN(C)C(=O)C(c1ccccc1)c1ccccc1
### Response FALSE

### Prompt What outcome does the record of this test show for Nc1c(Cl)c(Cl)c(Cl)c(Cl)c1Cl ?
### Response FALSE

### Prompt How was C=Cc1cccc(CCl)c1 classified in this test?
### Response FALSE

### Prompt Fill in: this test's call for CC(C)c1ccc(O)cc1 is ___
### Response FALSE

### Prompt Assay outcome for CCCCCCCCCCCCCCCC[N+](C)(C)C : what was it?
### Response FALSE

### Prompt What call does the record list for CC1CCC(=O)O1 (stereo unspecified) ?
### Response FALSE

### Prompt Call for entry O=S(=O)(O)O :
### Response FALSE

### Prompt Per the assay record, what outcome was assigned to ClCCCCCCCl ?
### Response FALSE

### Prompt Could you kindly confirm the outcome this assay logged for N#CCNCC#N ?
### Response FALSE

### Prompt Assay outcome for Oc1ccc(C2(c3ccc(O)cc3)c3ccccc3-c3ccccc32)cc1 : what was it?
### Response TRUE

### Prompt GET /call?item= CCCCCCC1CCOC1=O (stereo unspecified) returns the recorded outcome of this test.
### Response FALSE

### Prompt Recorded test call requested for O=[N+]([O-])O.O=[N+]([O-])O.[Cd]
### Response TRUE

### Prompt Field: outcome | Entry: O=c1c2ccccc2c(=O)c2c1cc(Cl)c1[nH]c3c([nH]c12)c(Cl)cc1c(=O)c2ccccc2c(=O)c13
### Response FALSE

### Prompt Which result was noted for this compound in the test: CCC(=O)c1ccc(Cl)cc1
### Response FALSE

### Prompt Just curious, what result did C[N+](=O)[O-] get here?
### Response FALSE

### Prompt Short answer needed: outcome of this test for CC(C)(C)C(=O)CCl ?
### Response FALSE
